The measurements presented in this section are drawn from ChEMBL document CHEMBL1777694.

biological target: Glutamate NMDA receptor (Rattus norvegicus) (UniProt P35439+Q00959+Q00960+Q00961+Q62645+Q8VHN2+Q9R1M7); experiment: Inhibition of NMDA receptor glycine site in rat brain homogenate at 100 uM; assay type: tissue-based
Please go through the items and note down their inhibition.
One number for each entry, in %.

Reference set, count: 4
• CS(=O)(=O)Nn1c(=O)[nH]c2c(Cl)cccc2c1=O = 37
• CS(=O)(=O)Nn1c(=O)[nH]c2cc(-c3ccccc3)ccc2c1=O = 36
• CN(n1c(=O)[nH]c2cc(Cl)ccc2c1=O)S(C)(=O)=O = 18
• Cn1c(=O)n(NS(C)(=O)=O)c(=O)c2ccc(Cl)cc21 = 36

Count: 3. Required value per item: inhibition.
1. CS(=O)(=O)Nn1c(=O)[nH]c2cccc(Cl)c2c1=O
2. CS(=O)(=O)Nn1c(=O)[nH]c2ccccc2c1=O
3. CS(=O)(=O)Nn1c(=O)[nH]c2ccc(Cl)cc2c1=O

[34, 48, 50]
